system: PKC binding to RACK1; experiment: Overlay / overlay-extraction assay: inhibition of PKC binding to recombinant RACK1 by peptides; parameters: species or system rat; details: overlay assay; concentration not given
outcome-measure: inhibition of the binding of PKC to RACK1, peptides rI-rVII

substance="peptide rI: synthetic peptide based on the corresponding region in WD-40 repeat I of RACK1 (VTQIATT)" reported="effective inhibitors"
substance="rIV: synthetic peptide based on the corresponding region in WD-40 repeat IV of RACK1 (VSCVRFS)" reported="lesser inhibitory effect"
substance="peptide rV: synthetic peptide based on the corresponding region in WD-40 repeat V of RACK1 (GYLNTVT)" reported="lesser inhibitory effect"
substance="peptide rII: synthetic peptide based on the corresponding region in WD-40 repeat II of RACK1 (FVSDVVI)" reported="effective inhibitors"
